Entry source: patent US10040789B2

Test system: NCI-H1703 cells
Test description: GLS Cell Proliferation Assay (NCI-H1703 cell proliferation)
Assay type: cell-based
Run parameters: NCI-H1703 cells, 5 days incubation, Sytox Green; read-out: Assay c) Prolif Mean IC50
// IC50 lookup, one value per entry
Write the value in nM as a bare number.

- Compound: "CN(C)[C@H](C(=O)Nc1nnc(N[C@@H]2CCN(c3cccnn3)C2)s1)c1cccc(OC(F)(F)F)c1 [Example 4(a)]"
  IC50 / nM: 8.41

Turning now to a further record.
Prompt line: Read off the recorded IC50 for CN(C)[C@H](C(=O)Nc1nnc(N[C@@H]2CCN(c3cccnn3)C2)s1)c1cccc(OC(F)(F)F)c1 [Example 18]
Response line: 3.51
